Measured IC50 of individual entries
- TARGET OF ASSAY: human amylin (islet amyloid polypeptide, IAPP) (Homo sapiens)
- Sequence (P10997 34-70): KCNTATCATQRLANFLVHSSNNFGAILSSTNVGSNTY
- RUN DESCRIPTION: thioflavin T fluorescence amyloid aggregation inhibition

Look over these answered cases.
O=C(O[C@@H]1Cc2c(O)cc(O)cc2O[C@@H]1c1cc(O)c(O)c(O)c1)c1cc(O)c(O)c(O)c1 [Epigallocatechin gallate, reference compound]	~1 µM
O=C(O)[C@H](O)Cc1ccc(O)c(O)c1	90 µM
O=C(/C=C/c1ccc(O)c(O)c1)O[C@H](Cc1ccc(O)c(O)c1)C(=O)O	0.2 to 0.3 µM

Please turn your attention to the following entry.
Ask: Which IC50 value belongs to O=C(O)/C=C/c1ccc(O)c(O)c1 ?
Reply: 7.2 µM
